Reported pIC50 values follow for various compounds
target: recombinant human GST-SYK (Homo sapiens, UniProt P43405); construct: purchased Carna Biosciences 08-176; test: Homogeneous Time-Resolved Fluorescence (HTRF) assay for the recombinant human Syk enzyme; type: biochemical; settings: GST-hSYK 5 pM, ATP 25 μM, 10-dose titration 10 μM to 0.508 nM; read-out: rhSYK Activity (IC50 rating)
pIC50: −log10 of the molar value.

// below: answered compounds
* Cc1cc(C)nc(Nc2cc(N[C@@H](CC(C)C)C(N)=O)cnc2C(N)=O)c1 [Example 1.45] | > 8.00
* Cc1cc(C)nc(Nc2cc(NC3CCNCC3)cnc2C(N)=O)c1 | 6.00 to 7.00
* Cc1cc(C)nc(Nc2cc(NC(=O)CN)cnc2C(N)=O)c1 | 6.00 to 7.00
* Cc1cc(C)nc(Nc2cc(NC3CC(N)C3)cnc2C(N)=O)c1 (stereo not drawn) | 7.00 to 8.00
* C[C@H](N)CNc1cnc(C(N)=O)c(Nc2ccn(C)n2)c1 | 7.00 to 8.00

Now take the following compound into account.
Form field: reported pIC50 of CNC(=O)C(N)CNc1cnc(C(N)=O)c(Nc2cc(C)cc(C)n2)c1 (stereo not drawn)
6.00 to 7.00

src = patent US9216173B2
